Hey, just so you know, these numbers are from patent US6894061B2.

Tested on: ER/NF-κB
experimentalDetails: ER/NF-κB luciferase reporter in Ad5-wt-ERα infected HAECT-1 cells
Type: cell-based, human
statedConditions: Homo sapiens, HAECT1, IL-1β, read-out: ER/NFκB IC50
pIC50: −log10 of the molar value.
resultType: pIC50

Use these answered entries as a reference point.
> print(dat)
                                   compound  resulttype  endpointvalue
1  CCC1c2ccccc2-c2cc(-c3ccc(O)cc3)ccc2N1S(=O)(=O)c1ccc(O)cc1 (centres unmarked)       pIC50           7.28
2  CCCCC1c2ccccc2-c2cc(Br)ccc2N1S(=O)(=O)c1ccc(O)cc1 (centres unmarked)       pIC50           6.17
3  Cc1cc(S(=O)(=O)N2c3ccc(Br)cc3-c3ccccc3C2C)ccc1O (centres unmarked)       pIC50           6.32

I. CC1c2ccc(O)cc2-c2ccccc2N1S(=O)(=O)c1ccc(O)cc1 (centres unmarked)
II. CCC1c2ccccc2-c2cc(-c3cc4ccccc4s3)ccc2N1S(=O)(=O)c1ccc(O)c(C)c1 (centres unmarked)
Ask | Record comparison, field pIC50: mark the lower of I and II . Which one? Tell me its label.
Reply | II
(II: 5.59, I: 6.16)

====

System: ER/NF-κB
experimentalDetails: ER/NF-κB luciferase reporter in Ad5-wt-ERα infected HAECT-1 cells
Assay type: cell-based, human
statedConditions: Homo sapiens, HAECT1, IL-1β, read-out: ER/NFκB Efficacy (%)*
resultType: Emax (%)
Express your answer in %, writing the number without its unit.

Ask | For the compound CCC1c2cc(F)ccc2-c2ccccc2N1S(=O)(=O)c1ccc(O)cc1 (centres unmarked) [Example 40] , what Emax is on record?
Reply | 99

Ask | Could you share which Emax value was measured for O=S(=O)(c1ccc(O)cc1)N1c2ccccc2-c2ccccc2[C@H]1c1ccccc1 (single isomer, unassigned) [Example 10] ?
Reply | 95

Ask | Data request, read-out Emax, for CCC1c2ccccc2-c2cc(-c3cccc(O)c3)ccc2N1S(=O)(=O)c1ccc(O)cc1 (centres unmarked) [Example 30]
Reply | 76

Ask | Return reported Emax; argument: CCC1c2ccccc2-c2cc(-c3cccc(O)c3)ccc2N1S(=O)(=O)c1ccc(O)c(C)c1 (centres unmarked) [Example 84]
Reply | 80

Ask | What measured Emax goes with CCC1c2cc(F)ccc2-c2cc(-c3ccsc3)ccc2N1S(=O)(=O)c1ccc(O)cc1 (centres unmarked) [Example 52] ?
Reply | 95

Ask | # Emax lookup, item CCC1c2ccccc2-c2cc(-c3cccc4c3oc3ccccc34)ccc2N1S(=O)(=O)c1ccc(O)cc1 (centres unmarked) [Example 31]
Reply | 108

Ask | Which Emax reading was recorded for the compound Cc1cc(S(=O)(=O)N2c3ccccc3-c3ccccc3C2C)ccc1O (centres unmarked) [Example 5] ?
Reply | 102

====

System: IL-6
experimentalDetails: IL-6 test procedure (IL-6 ELISA of media) in Ad5-wt-ERα infected HAECT-1 cells
Assay type: cell-based, human
statedConditions: Homo sapiens, HAECT1, IL-1β, read-out: Interleukin-6 Efficacy (%)
resultType: Emax (%)
The answer is to be given in %; state only the numeric part.

Ask | Quick check: Emax of `C[C@H]1c2ccccc2-c2ccc(F)cc2N1S(=O)(=O)c1cccc(O)c1` ?
Reply | 92

Ask | Which Emax is reported for this compound? C[C@H]1c2cc(F)ccc2-c2ccc(F)cc2N1S(=O)(=O)c1ccc(O)cc1O (single isomer, unassigned)
Reply | 141

Ask | Can you share its Emax? I mean this compound: `C[C@@H]1c2cc(F)ccc2-c2ccccc2N1S(=O)(=O)c1ccc(O)cc1`
Reply | 35

Ask | Any idea what Emax was measured for `C[C@@H]1c2ccccc2-c2ccc(F)cc2N1S(=O)(=O)c1ccc(O)cc1O` ?
Reply | 38

Ask | Query: Emax; subject: CC1c2ccc(F)cc2-c2ccc(F)cc2N1S(=O)(=O)c1cccc(O)c1 (stereo not drawn)
Reply | 102

Ask | Can you look up the measured Emax of `C[C@H]1c2ccccc2-c2ccc(Cl)cc2N1S(=O)(=O)c1ccc(O)cc1` for me?
Reply | 154

Ask | What value of Emax has been recorded for this entry: CC1c2ccc(F)cc2-c2cc(F)ccc2N1S(=O)(=O)c1cccc(O)c1 (stereo not drawn)
Reply | 101

Ask | So what does the record say about Emax for CC1c2ccccc2-c2ccc(Cl)cc2N1S(=O)(=O)c1ccc(O)cc1 (stereo not drawn) ?
Reply | 113

Ask | I am curious: what Emax value has been reported for C[C@@H]1c2cc(F)ccc2-c2ccc(F)cc2N1S(=O)(=O)c1cccc(O)c1 (single isomer, unassigned) ?
Reply | 74

====

Test system: IL-6
experimentalDetails: IL-6 test procedure (IL-6 ELISA of media) in Ad5-wt-ERα infected HAECT-1 cells
Assay type: cell-based, human
statedConditions: IL-1β, read-out: Interleukin-6 IC50
pIC50: −log10 of the molar value.
resultType: pIC50

Solved entries:
> print(dat)
                                   compound  targetdesc  resulttype  endpointvalue
1  CC1c2ccc(F)cc2-c2ccc(F)cc2N1S(=O)(=O)c1ccc(O)cc1 (stereo not shown) [Example 114]        IL-6       pIC50           7.11
2  C[C@@H]1c2ccccc2-c2ccc(Cl)cc2N1S(=O)(=O)c1ccc(O)cc1 [Example 122]        IL-6       pIC50           6.33

A. C[C@H]1c2ccccc2-c2ccc(Cl)cc2N1S(=O)(=O)c1cccc(O)c1 [Example 120]
B. C[C@H]1c2ccccc2-c2ccc(Cl)cc2N1S(=O)(=O)c1ccc(O)cc1O [Example 125]
Ask | Dear colleague, could you let me know whether A or B has the lower recorded pIC50? Thanks. Pick one; state its label.
Reply | B

====

Test system: ER/NF-κB
experimentalDetails: ER/NF-κB luciferase reporter in Ad5-wt-ERα infected HAECT-1 cells
Assay type: cell-based, human
statedConditions: Homo sapiens, HAECT1, IL-1β, read-out: ER/NFκB Efficacy (%)*
Description: After four hours, cells were washed with EBM-BSA and incubated overnight in the same medium. […] ERα infected HAECT-1 cells or control cells were thawed, diluted 42× in warm EBM-BSA, plated into 96-well plates at 0.1 mL/well and incubated for 4 hours at 34° C. […] Luciferase was determined on a Wallac Victor^2 Luminometer (Gaithersburg, Md.) using 10 μL of lysate and mixing with 100 μL of Promega Luciferase Assay reagent. […]
resultType: Emax (%)
A number alone suffices; assume %.

Solved cases below.
> print(dat)
                                   compound  resulttype  endpointvalue
1  CCC1c2ccccc2-c2cc(-c3ccccc3O)ccc2N1S(=O)(=O)c1ccc(O)c(C)c1 (stereo not shown) [Example 78]        Emax             79
2  CCC1c2cc(F)ccc2-c2cc(-c3ccccc3)ccc2N1S(=O)(=O)c1ccc(O)cc1 (stereo not shown) [Example 47]        Emax             89

Ask | Lab note: need Emax with ER/NF-κB for entry Cc1ccc2c(c1)C(C)N(S(=O)(=O)c1ccc(O)cc1)c1ccccc1-2 (stereo not shown) [Example 60] , please look it up.
Reply | 95

Ask | Give ER/NF-κB Emax for CCc1ccc(-c2ccc3c(c2)-c2ccccc2C(CC)N3S(=O)(=O)c2ccc(O)cc2)cc1 (stereo not shown) [Example 75]
Reply | 116

====

Tested on: ER/NF-κB
experimentalDetails: ER/NF-κB luciferase reporter in Ad5-wt-ERα infected HAECT-1 cells
Type: cell-based, human
statedConditions: Homo sapiens, HAECT1, IL-1β, read-out: ER/NFκB IC50
pIC50: −log10 of the molar value.
resultType: pIC50

> print(dat)
                                   compound  resulttype  endpointvalue
1  CCC1c2ccccc2-c2cc(-c3cccc(OC)c3)ccc2N1S(=O)(=O)c1ccc(O)cc1 (stereo not shown)       pIC50           6.63

I. CCC1c2ccccc2-c2cc(-c3cccc(Cl)c3)ccc2N1S(=O)(=O)c1ccc(O)cc1 (stereo not shown)
II. O=S(=O)(c1ccc(O)cc1)N1c2ccccc2-c2ccccc2C1c1ccccc1 (stereo not shown)
III. Cc1cc(S(=O)(=O)N2c3ccccc3-c3ccc(F)cc3C2C)ccc1O (stereo not shown)
Ask | Place the items in sequence of falling pIC50. # the answer lists labels in the order requested
Reply | II, I, III
(II: 6.90, I: 6.61, III: 6.15)

====

Listed next: entries and their corresponding melting point.

# annotated cases, reported melting point shown
> print(dat)
                                   molecule     resulttype  endpointvalue
1  CC1c2cc(Cl)ccc2-c2cc(Br)ccc2N1S(=O)(=O)c1ccc(O)cc1 (centres unmarked) [Example 62]  melting point  213 to 215 °C
2  CC1c2ccccc2-c2ccccc2N1S(=O)(=O)c1ccc(O)c(O)c1 (centres unmarked) [Example 23]  melting point  163 to 165 °C
3  CCC1c2cc(F)ccc2-c2ccccc2N1S(=O)(=O)c1ccc(O)cc1 (centres unmarked) [Example 40]  melting point         151 °C
4  Cc1cc(S(=O)(=O)N2c3ccccc3-c3ccccc3C2C)cc(C)c1O (centres unmarked) [Example 59]  melting point  211 to 213 °C

Ask | Fill in: melting point of CC1c2ccccc2-c2cc(F)ccc2N1S(=O)(=O)c1cccc(O)c1 (centres unmarked) [Example 113] is ___
Reply | 195 to 196 °C
